Biological target: LgTrip 3546 (with His tag; SEQ ID NO: 51)
Sequence (chain, as listed by the source): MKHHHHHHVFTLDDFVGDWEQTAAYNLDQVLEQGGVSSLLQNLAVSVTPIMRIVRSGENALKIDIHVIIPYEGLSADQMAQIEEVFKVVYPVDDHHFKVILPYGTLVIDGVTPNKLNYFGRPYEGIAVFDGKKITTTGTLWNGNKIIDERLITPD
Assay: luminescence complementation
Settings: modification not given
Kd reference

Binder	Kd (nM)
GKMNFRVTINSWK [618]	2690
EKMLFRVTIGRWK [709]	180
ELMLFRVTINSWK [655]	15900
DKMLFTVTIGKWK [749]	1700
GKMLFRVTIKSWK [621]	40
GKMKFRVTIRSWK [719]	370
GKMLFRVTIESWK [622]	7240
KQMLFRVTINSWK [654]	60
RLMLFRVTINSWK [651]	40
GSMLFRVTINSYK [619]	1510
GKMLFRVNINSWK [613]	5250
GKMLFRVTINSYK [620]	190
GKMLFRVTIEKWK [703]	110
GKMLFRVSINSWK [614]	2580
